FYI, the data here is from paper PMC5540273.

Recorded measurements of %Inh, one per entry
# Tested on: PRKX;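 also: KINOMEscan kinase panel screen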
# condition: concentration: 1 μM,replicates: in singlicate; n = 1
property measured: %Inh (%)

Cc1ccc(Nc2ccnc(Nc3ccc4c(c3)CS(=O)(=O)C4)n2)cc1O.Cl ... 0
CS(=O)(=O)Nc1ccc(-c2ccnc3[nH]ccc23)cc1 ... 42
NC(=O)c1ccc(-c2cc3ncnc(SCC(=O)O)c3s2)cc1 ... 0
C[C@@H](Oc1cc(-n2cnc3cc(-c4cnn(C)c4)ccc32)sc1C(N)=O)c1ccccc1Cl ... 0
Cn1ccc2ncnc(Oc3ccc(NC(=O)Nc4cccc(C(F)(F)F)c4)c(F)c3)c21 ... 0
